# credit: ChEMBL document CHEMBL6178012

# MEASUREMENT_DESCRIPTION: in vitro
# CONDITIONS: dog, MDCK
METRIC: Papp A→B at 2 h, 1 µM (nm/s)

P. COc1c(Nc2cc(C)[nH]n2)nc(Sc2ccc(S(C)(=O)=O)cc2F)nc1N1CCOCC1
Q. COc1c(Nc2cc(C)[nH]n2)nc(Sc2ccc(S(=O)(=O)Cc3cccc([N+](=O)[O-])c3F)cc2F)nc1N1CCCCC1
R. COc1c(Nc2cc(C)[nH]n2)nc(Sc2ccc(S(C)(=O)=O)cc2F)nc1N1CCCCC1
**Query** Order them by Papp A→B at 2 h, 1 µM, ascending: the compounds above. Give the labels in the order specified.
**Result** Q, R, P

====

# MEASUREMENT_DESCRIPTION: in vivo
# CONDITIONS: male, Beagle, dog, po, 1.15 mg/kg
METRIC: bioavailability at 24 h (%)
Note: unit % is implicit; provide only the numeric part.

**Query** Note down bioavailability at 24 h recorded for Cc1cc(Nc2nc(N(C)c3c(F)cc(S(C)(=O)=O)cc3F)nc(-c3cn(C)cn3)c2C2CC2)n[nH]1
**Result** 98

====

# MEASUREMENT_DESCRIPTION: in vivo
# CONDITIONS: cynomolgus monkey, iv, 0.5 mg/kg
METRIC: clearance at 24 h (mL/min/kg)
Note: unit mL/min/kg is implicit; provide only the numeric part.

**Query** Note down clearance at 24 h recorded for Cc1cc(Nc2nc(N(C)c3c(F)cc(S(C)(=O)=O)cc3F)nc(-c3cn(C)cn3)c2C2CC2)n[nH]1
**Result** 14

====

# MEASUREMENT_DESCRIPTION: in vitro
# CONDITIONS: human, Caco-2
METRIC: efflux ratio at […], 10 µM

Cc1cc(Nc2nc(N(C)c3c(F)cc(S(C)(=O)=O)cc3F)nc(-c3cnn(C)c3)c2C2CC2)n[nH]1    1.1
Cc1cc(Nc2nc(N(C)c3c(F)cc(S(C)(=O)=O)cc3F)nc(-c3cc(C(C)(C)O)n(C)n3)c2C2CC2)n[nH]1    6.9
Cc1cc(Nc2nc(N(C)c3c(F)cc(S(C)(=O)=O)cc3F)nc(-c3cn(C)cn3)c2C2CC2)n[nH]1    8.1

A. Cc1cc(Nc2nc(N(C)c3c(F)cc(S(C)(=O)=O)cc3F)nc(-c3cn(C)c(C4CC4)n3)c2C2CC2)n[nH]1
B. Cc1cc(Nc2nc(N(C)c3c(F)cc(S(C)(=O)=O)cc3F)nc(-c3cn4c(n3)COCC4)c2C2CC2)n[nH]1
**Query** I'd appreciate it if you could identify which of A and B has the greater efflux ratio at […], 10 µM. Response format: the label of the selected entry.
**Result** B

====

# MEASUREMENT_DESCRIPTION: in vitro
# CONDITIONS: dog, cryopreserved hepatocytes
METRIC: hepatocyte CLint at 1 µM

**Query** Note down hepatocyte CLint at 1 µM recorded for Cc1cc(Nc2nc(N(C)c3c(F)cc(S(C)(=O)=O)cc3F)nc(-c3cn(C)cn3)c2C2CC2)n[nH]1
**Result** < 3.8 µL/min/1e6 cells

====

# MEASUREMENT_DESCRIPTION: in vivo
# CONDITIONS: female, CD-1, mouse, po, 5 mg/kg
METRIC: bioavailability at 24 h (%)

Cc1cc(Nc2nc(N(C)c3c(F)cc(S(C)(=O)=O)cc3F)nc(-c3cc(C(C)(C)O)n(C)n3)c2C2CC2)n[nH]1    55

P. Cc1cc(Nc2nc(N(C)c3c(F)cc(S(C)(=O)=O)cc3F)nc(-c3cnn(C)c3CO)c2C2CC2)n[nH]1
Q. Cc1cc(Nc2nc(N(C)c3c(F)cc(S(C)(=O)=O)cc3F)nc(-c3cn4c(n3)COCC4)c2C2CC2)n[nH]1
**Query** Could you check which of P and Q has a smaller value for bioavailability at 24 h? Response format: the label of the selected entry.
**Result** P
(P: 23%, Q: 40%)
